assay: P. berghei load reduction in hepatocytes – cell-based, HepG2, luciferase luminescence, HepG2 viability, primary screen (AID 624349);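 also: 100% = mean of DMSO negative control wells on the same plate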; details: P. berghei liver stage in HepG2, luciferase luminescence, concentration not given here; measured here: HepG2 viability without parasites
Reported Metric: viability (%)
Write the value in % as a bare number.

viability reading for `C[C@@](Cc1ccc(O)c(O)c1)(NN)C(=O)O` : 129

viability reading for `Nc1ccc(C(=O)Oc2ccccc2)c(O)c1` : 172

---

test: polyglutamine aggregate formation blockers (AID 1604); conditions: polyglutamine-induced protein aggregation inhibition assay; stronger effect = higher value; tested at 2.5 µM
Reported Metric: inhibition of aggregation (%)
Write the value in % as a bare number.

Oc1c(I)cc(I)c2cccnc12: 24.2

inhibition of aggregation reading for `NC[C@H](O)c1ccc(O)c(O)c1` : 44.7

inhibition of aggregation reading for CN(C)CCOC(=O)C(c1ccccc1)C1(O)CCCC1 (centres undefined) : 90.7

inhibition of aggregation reading for Cc1ccccc1N1C(=O)c2cc(S(N)(=O)=O)c(Cl)cc2NC1C (centres undefined) : 4.55

inhibition of aggregation reading for `CCCCC1C(=O)N(c2ccccc2)N(c2ccccc2)C1=O` : 76

inhibition of aggregation reading for `CS(=O)(=O)Nc1ccc([N+](=O)[O-])cc1Oc1ccccc1` : 42.5

inhibition of aggregation reading for `Cc1ccnc(NS(=O)(=O)c2ccc(N)cc2)n1` : 38

inhibition of aggregation reading for `CC(C)(Oc1ccc(Cl)cc1)C(=O)O` : 38.2

inhibition of aggregation reading for `O=C(O)c1ccc(S(=O)(=O)N(Cl)Cl)cc1` : 56.3

inhibition of aggregation reading for `CC(=O)Oc1ccccc1C(=O)O` : 61.5

inhibition of aggregation reading for `CC1=NN(c2ccccc2)C(=O)C1` : 10.2

---

Listed here are molecules together with their documented inhibition.
test: CRL1545 cell growth, single agent and combined, cisplatin and BGB IC20 combos (AID 1671464); settings: CRL1545 osteosarcoma cells, measured here: with cisplatin IC20 combination, at 0.5 µM, stronger effect = higher value;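 also: cells exposed to compound for 96 hours before readout; 0% = vehicle DMSO and 100% = high DMSO killing control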
Write the value in % as a bare number.

Solved entries (count: 5):
Cc1nc2ccc(CN(C)c3ccc(C(=O)N[C@@H](CCC(=O)O)C(=O)O)s3)cc2c(=O)[nH]1: -9.68
C[C@H]1COc2c(C3(N)CC3)c(F)cc3c(=O)c(C(=O)O)cn1c23: 14.1
O=c1oc2c(O)c(O)cc3c(=O)oc4c(O)c(O)cc1c4c23: -19.8
O=C(O)CCCCCCCC(=O)O: -14.7
CC(N)C12CC3CC(CC(C3)C1)C2 (centres undefined): -48

Moving on to another molecule below.
inhibition reading for `O=C(O)P(=O)(O)O` : -118

---

Listed here are molecules together with their documented viability decrease (inhibition).
test: reduced SW480 viability measured with CellTiter-Glo, NPC library, primary (AID 1117343); settings: CellTiter-Glo luminescence; at 20 µM (top of the series)
Write the value in % as a bare number.

Solved entries (count: 6):
O=C1O[C@H](CO)[C@@H](O)[C@H](O)[C@H]1O: 31.1
CN1CCN(CC(=O)N2c3ccccc3C(=O)Nc3cccnc32)CC1: -14.1
NC[C@H]1O[C@H](O[C@H]2[C@H](O)[C@@H](O[C@H]3O[C@H](CO)[C@@H](O)[C@H](N)[C@H]3O)[C@H](N)C[C@@H]2N)[C@H](N)[C@@H](O)[C@@H]1O: 6.5
COCc1c(C(C)C)nc(C(C)C)c(/C=C/[C@@H](O)C[C@@H](O)CC(=O)O)c1-c1ccc(F)cc1: 151
C#CCN[C@@H]1CCc2ccccc21: -41
COC(=O)Nc1nc2ccc(Sc3ccccc3)cc2[nH]1: 81.8

viability decrease (inhibition) reading for `NNc1nncc2ccccc12` : 4.9

viability decrease (inhibition) reading for `O=C(CCBr)N1CCN(C(=O)CCBr)CC1` : 3.9

viability decrease (inhibition) reading for `Cc1c(NC(=O)c2cccnc2)c(=O)n(-c2ccccc2)n1C` : 18.1

viability decrease (inhibition) reading for CNC1(C)C2CCC(C2)C1(C)C (stereo unspecified) : 8.7

viability decrease (inhibition) reading for `CCCCN(CCCC)CCCOC(=O)c1ccc(N)cc1` : 21.3
